All values here come from paper PMC6212594.

System tested: T1, AF9-YEATS domain (aa 1-138) (human, UniProt P42568 1-138)
T1 chain: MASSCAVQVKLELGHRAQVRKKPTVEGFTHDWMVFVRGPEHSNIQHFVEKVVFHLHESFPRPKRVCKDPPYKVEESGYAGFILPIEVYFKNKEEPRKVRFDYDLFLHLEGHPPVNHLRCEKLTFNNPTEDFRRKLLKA
Where no end group is shown, it is not given here. The star is where a group is joined. Crotonyl(E) = C/C=C/C(=O)*; Butyryl = CCCC(=O)*
# Lookup of reported Kd keyed by entry
Please reply with the bare figure in µM and do not write the unit itself.

>>> value_measured("QTARK(Butyryl)STGG (peptide, UniProt P68431 6-14, looked up, histone H3, residues 5-13, K9 butyrylated; also called H3K9bu (5-13); source: bought: Synpeptide) [histone H3K9bu peptide (aa 5-13)]")
3.9
>>> value_measured("QTARK(Ac)STGG (peptide, UniProt P68431 6-14, looked up, histone H3, residues 5-13, K9 acetylated; source: bought: Synpeptide) [histone H3K9ac peptide (aa 5-13)]")
4.3

The record that follows has no Kd shown yet.
**Q:** Return reported Kd; argument: QTARK(Crotonyl(E))STGG (peptide, UniProt P68431 6-14, looked up, histone H3, residues 5-13, K9 crotonylated; also called H3K9cr (5-13); source: bought: Synpeptide) [histone H3K9cr peptide (aa 5-13)]
**A:** 3.7
